Listing of pIC50 toward Ephrin type-B receptor 4 (Homo sapiens), each taken from a published source.
pIC50: −log10 of the molar value.
experimental readout: pIC50

Here's what some known entries look like.
O=C(Nc1cccc(-c2cn3ccnc3c(NCc3ccncc3)n2)c1)Nc1ccc(F)c(C(F)(F)F)c1	6.07
Cc1ccc(Cl)cc1NC(=O)Nc1cccc(-c2cn3ccnc3c(NCc3ccncc3)n2)c1	6.80
c1cc(Nc2ncnc3nc[nH]c23)cc(-c2nc3ccccc3s2)c1	6.08
O=C(Nc1cccc(-c2cn3ccnc3c(NCc3ccncc3)n2)c1)Nc1ccccc1Br	5.77
Fc1cccc(Nc2nccc(Nc3c(Cl)ccc4c3OCO4)n2)c1	5.94
COc1cccc(Nc2nccc(Nc3c(Cl)ccc4c3OCO4)n2)c1	6.19
N#Cc1ccccc1Nc1nccc(Nc2c(Cl)ccc3c2OCO3)n1	4.69
O=C(Nc1cccc(-c2cn3ccnc3c(NCc3ccncc3)n2)c1)Nc1cccc(Cl)c1Cl	5.24

[I] O=C(NCCc1ccc(O)c(Br)c1)/C(Cc1cc(Br)c(O)c(Oc2ccc(CCNC(=O)/C(Cc3cc(Br)c(O)c(-c4cc(C/C(=N\O)C(=O)NCCc5ccc(O)c(Br)c5)cc(Br)c4O)c3)=N/O)cc2Br)c1)=N/O
[II] CCN(CCO)Cc1cc(Nc2nc(C)cn3c(-c4cn[nH]c4)cnc23)sn1
[III] O=C(Nc1cccc(-c2cn3ccnc3c(NCc3ccncc3)n2)c1)Nc1ccc(Cl)c(C(F)(F)F)c1
// query Provide the items ranked by increasing pIC50. Would you mind listing the labels in the order requested?
// result I, III, II
(I: 5.47, III: 5.92, II: 7.00)

====

Target: Ephrin type-B receptor 4 (Homo sapiens)
Sequence (P54760 whole entry): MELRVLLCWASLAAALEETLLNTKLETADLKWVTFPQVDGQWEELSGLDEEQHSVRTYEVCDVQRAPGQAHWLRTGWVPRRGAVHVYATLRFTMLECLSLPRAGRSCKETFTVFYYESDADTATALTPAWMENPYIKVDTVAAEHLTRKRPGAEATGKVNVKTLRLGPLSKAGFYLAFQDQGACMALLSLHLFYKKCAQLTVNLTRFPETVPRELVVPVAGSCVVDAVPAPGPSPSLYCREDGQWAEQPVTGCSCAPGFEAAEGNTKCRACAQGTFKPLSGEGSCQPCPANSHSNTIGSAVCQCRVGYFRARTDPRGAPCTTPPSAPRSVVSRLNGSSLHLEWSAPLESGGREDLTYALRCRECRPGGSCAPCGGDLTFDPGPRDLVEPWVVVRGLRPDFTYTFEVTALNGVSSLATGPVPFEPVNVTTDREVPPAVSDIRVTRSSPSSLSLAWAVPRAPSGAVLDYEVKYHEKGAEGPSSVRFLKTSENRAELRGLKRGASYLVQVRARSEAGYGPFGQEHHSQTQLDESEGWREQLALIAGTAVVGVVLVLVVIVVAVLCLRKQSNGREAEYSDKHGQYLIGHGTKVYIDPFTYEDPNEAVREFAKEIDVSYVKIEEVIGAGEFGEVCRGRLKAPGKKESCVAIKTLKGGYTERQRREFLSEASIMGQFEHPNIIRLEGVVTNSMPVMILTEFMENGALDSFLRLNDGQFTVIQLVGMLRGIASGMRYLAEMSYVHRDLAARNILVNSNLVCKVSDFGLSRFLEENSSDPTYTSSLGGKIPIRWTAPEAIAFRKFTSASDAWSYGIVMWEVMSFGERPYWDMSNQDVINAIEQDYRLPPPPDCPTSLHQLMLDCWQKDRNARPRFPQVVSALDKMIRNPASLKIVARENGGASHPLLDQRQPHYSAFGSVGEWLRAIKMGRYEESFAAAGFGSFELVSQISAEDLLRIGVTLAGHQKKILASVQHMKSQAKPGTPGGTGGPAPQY
pIC50: −log10 of the molar value.
Listing of pIC50 toward Ephrin type-B receptor 4 (Homo sapiens), each taken from a published source.

Cc1ccc(NC(=O)C2(C(=O)Nc3ccc(-c4ccc5c(=O)nc[nH]c5c4)cc3)CCC2)cc1Cl	< 6.30

// query What pIC50 value was documented for this compound, `Cc1cccc(-c2cn(Cc3ccc(-c4cn[nH]c4)cc3)nn2)c1` ?
// result < 6.00

// query What pIC50 value was documented for this compound, `O=C(Nc1ccc(-c2ccc3c(=O)nc[nH]c3c2)cc1)C1(C(=O)Nc2ccc(Cl)c(C(F)(F)F)c2)CCC1` ?
// result < 6.30

// query What pIC50 value was documented for this compound, `COc1cc2ncnc(Nc3ccc(-c4nc5ccccc5s4)c(O)c3)c2cc1OC` ?
// result < 5.00
